STUDY_TARGET: Smo D477G (Mus musculus, UniProt P56726, D477G)
Sequence (P56726 33-793 D477G): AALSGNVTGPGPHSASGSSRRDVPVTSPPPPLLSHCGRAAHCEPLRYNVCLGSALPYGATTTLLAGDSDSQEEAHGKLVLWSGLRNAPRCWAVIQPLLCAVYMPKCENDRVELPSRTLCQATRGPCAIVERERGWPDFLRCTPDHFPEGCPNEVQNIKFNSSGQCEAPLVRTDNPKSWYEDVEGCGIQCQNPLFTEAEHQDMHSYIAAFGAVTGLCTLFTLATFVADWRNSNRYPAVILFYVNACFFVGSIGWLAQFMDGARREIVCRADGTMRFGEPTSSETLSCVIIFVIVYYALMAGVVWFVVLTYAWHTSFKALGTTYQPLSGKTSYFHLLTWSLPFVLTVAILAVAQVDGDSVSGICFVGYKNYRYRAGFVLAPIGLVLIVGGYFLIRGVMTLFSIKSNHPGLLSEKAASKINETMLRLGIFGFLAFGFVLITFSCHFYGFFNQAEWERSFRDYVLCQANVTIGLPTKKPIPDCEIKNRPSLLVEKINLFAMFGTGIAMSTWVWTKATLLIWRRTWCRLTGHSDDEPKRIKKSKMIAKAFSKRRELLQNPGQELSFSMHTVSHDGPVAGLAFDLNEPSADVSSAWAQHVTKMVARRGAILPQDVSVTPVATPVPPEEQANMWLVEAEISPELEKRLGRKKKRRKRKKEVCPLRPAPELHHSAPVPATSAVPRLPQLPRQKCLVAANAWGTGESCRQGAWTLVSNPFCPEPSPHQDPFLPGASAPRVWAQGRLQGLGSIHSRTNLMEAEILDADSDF
ASSAY_INFO: Gli-Luc reporter assay in NIH3T3-Gli-Luc cells overexpressing Smo D477G
REPORTED_ENDPOINT: IC50 (nM)
Unit nM implied. Number only.

stdin: Tell me the measured IC50 of COc1cc(NC(=O)c2cccnc2Cl)ccc1C(=O)Nc1ccc(Cl)c(-c2ncc(-c3ccccc3)[nH]2)c1 , please.
stdout: 96
